Experiment: inhibition of NOD1-driven NF-kB reporter – cell-based, luminescence, uHTS, primary screen (AID 1578);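 further: HEK-293T reporter cells stimulated with the NOD1 agonist gamma-tri-DAP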
Conditions: NOD1-driven NF-kB luciferase reporter cells, at 4 µM, active compounds read high
The whole screen tested about 290,000 compounds, of which about 3,000 (1%) were called active. The list comes from a sample in which actives are over-represented; it also holds close analogues and randomly drawn compounds.
A collection of compounds and their measured inhibition
Please give a number only; it is taken to be in %.

Take a look at these entries with their results.
COMPOUND | inhibition / %
OC(CN1CCC(c2c[nH]c3ccccc23)CC1)C(F)(F)F (stereo not given) | 1.1
CCc1ccccc1NC(=O)N1C[C@H]2C[C@@H](C1)c1cccc(=O)n1C2 | 54.5
O=c1cccc2n1CC1CC2CN(Cc2cccc(Cl)c2Cl)C1 (stereo not given) | 63.8
O=c1cccc2n1CC1CC2CN(Cc2c(Cl)cccc2Cl)C1 (stereo not given) | 14
CCOc1nc(NC(C)C)nc(N2CC3CC(C2)c2cccc(=O)n2C3)n1 (stereo not given) | -38.6
CNc1ccc2oc(C[C@H]3O[C@@]4(CC[C@H]3C)O[C@H]([C@H](C)C(=O)c3ccc[nH]3)[C@H](C)C[C@H]4C)nc2c1C(=O)O | 76.2

[in] Returns the measured inhibition for the input compound. Input: `COc1ccccc1NC(=O)N1C[C@@H]2C[C@@H](C1)c1cccc(=O)n1C2`
[out] -34.3

[in] Returns the measured inhibition for the input compound. Input: `COc1ccc(CC2(CCc3ccncc3)C(=O)NC(=O)NC2=O)cc1`
[out] -26.1

[in] Returns the measured inhibition for the input compound. Input: `COc1ccc(CC(=O)N2C[C@H]3C[C@@H](C2)c2cccc(=O)n2C3)cc1`
[out] 24.2

[in] Returns the measured inhibition for the input compound. Input: `C=CCn1c(O)c(/C(C)=N/N2CCCCCC2)c(=O)[nH]c1=O`
[out] -6.9

----------
Assay: inhibition of NOD1-driven NF-kB reporter – cell-based, luminescence, uHTS, primary screen (AID 1578);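 further: HEK-293T reporter cells stimulated with the NOD1 agonist gamma-tri-DAP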
Conditions: NOD1-driven NF-kB luciferase reporter cells, at 4 µM, active compounds read high
In all, about 290,000 compounds went through this assay and about 3,000 (1%) were called active. What follows is part of a selection rich in actives, with near analogues and random picks from the rest.
A collection of molecules and their measured inhibition
Please give a number only; it is taken to be in %.

Take a look at these entries with their results.
MOLECULE | inhibition (%)
CN(Cc1ccccc1)Cc1ccccc1OC(=O)N(C)C | 2.4
CC(C)(C)C(=O)c1cn(CC(=O)NCc2ccco2)c2ccccc12 | -39.1
CN1CC(C(=O)c2ccc(Cl)cc2)C(c2ccccc2F)C1 (stereo not drawn) | -15.7
Cc1ccccc1-n1c(O)c(C=NCCN2CCOCC2)c(=O)[nH]c1=O | -5.7
O=c1c2ccccc2nc(-c2ccccc2)n1-c1ccccc1O | -8.3
COc1ccc(CCC(=O)N2C[C@H]3C[C@@H](C2)c2cccc(=O)n2C3)cc1 | 53.1
CC(C)(C)c1cc([N+](=O)[O-])cc(C(C)(C)C)c1O | 67.8
COC(=O)C(C)Oc1cc(C)cc2oc(=O)c3c(c12)CCCC3 (stereo not drawn) | -9.2

[in] Returns the measured inhibition for the input molecule. Input: CC(C)c1oc(=O)cc2c1[C@@H](O)[C@H]1OC(=O)[C@@]3(C)CC[C@@H](O)[C@@]2(C)C13 (stereo partly drawn)
[out] -5.4

[in] Returns the measured inhibition for the input molecule. Input: `COCCCN=Cc1c(O)[nH]c(=S)[nH]c1=O`
[out] -7.3

[in] Returns the measured inhibition for the input molecule. Input: `CCOP(=O)(OCC)c1cc(C)c(O)c(C(C)(C)C)c1`
[out] -1.1

[in] Returns the measured inhibition for the input molecule. Input: `O=C1NC(=O)N(CCc2ccc(F)cc2)C(=O)/C1=C/c1ccco1`
[out] 10.2
